From: patent US10780090B2

Target: recombinant human SAE enzyme (Homo sapiens (Human), UniProt Q9UBT2)
Sequence (Q9UBT2 whole entry): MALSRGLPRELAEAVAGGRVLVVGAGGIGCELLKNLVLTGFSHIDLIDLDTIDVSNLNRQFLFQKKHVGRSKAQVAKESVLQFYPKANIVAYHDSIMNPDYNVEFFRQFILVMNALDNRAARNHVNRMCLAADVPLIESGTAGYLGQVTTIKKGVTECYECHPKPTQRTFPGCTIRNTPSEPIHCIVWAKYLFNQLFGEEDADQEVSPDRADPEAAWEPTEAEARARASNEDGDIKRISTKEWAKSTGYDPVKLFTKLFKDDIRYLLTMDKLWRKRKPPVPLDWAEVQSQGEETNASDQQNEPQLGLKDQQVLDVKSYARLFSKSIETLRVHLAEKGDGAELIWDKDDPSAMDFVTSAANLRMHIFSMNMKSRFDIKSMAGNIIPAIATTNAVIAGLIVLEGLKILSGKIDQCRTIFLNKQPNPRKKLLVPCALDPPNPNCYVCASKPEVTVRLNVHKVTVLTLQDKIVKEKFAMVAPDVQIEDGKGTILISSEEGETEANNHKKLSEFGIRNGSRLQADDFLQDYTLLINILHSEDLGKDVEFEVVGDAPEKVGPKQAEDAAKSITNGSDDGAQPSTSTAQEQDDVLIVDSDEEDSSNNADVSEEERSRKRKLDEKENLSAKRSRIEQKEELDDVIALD
Sequence (Q9UBE0 whole entry partner): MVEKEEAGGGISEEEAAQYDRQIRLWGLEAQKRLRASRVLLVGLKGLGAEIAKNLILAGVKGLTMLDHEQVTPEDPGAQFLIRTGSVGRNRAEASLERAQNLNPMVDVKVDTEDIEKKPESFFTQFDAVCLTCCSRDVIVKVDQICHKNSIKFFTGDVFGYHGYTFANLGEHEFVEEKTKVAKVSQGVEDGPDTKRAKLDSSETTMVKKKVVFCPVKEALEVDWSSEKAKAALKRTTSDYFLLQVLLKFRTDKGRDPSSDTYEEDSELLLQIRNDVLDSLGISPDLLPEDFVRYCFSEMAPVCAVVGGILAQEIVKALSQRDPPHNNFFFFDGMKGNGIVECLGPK
Assay: SAE HTRF enzyme assay
Format: biochemical
Condition Parameters: class symbols A/B/C
pIC50: −log10 of the molar value.
Observable: pIC50

CN(C)[C@H](c1cccc(Cl)c1)c1csc(C(=O)c2cncnc2N[C@@H]2C[C@H](COS(N)(=O)=O)[C@@H](O)C2)c1 (single isomer, unassigned) [I-153a]
6.00 to 7.00
Cc1sc(C(=O)c2cncnc2NC2CC(O)C(COS(N)(=O)=O)C2)cc1[S+]([O-])c1ccccc1 (mixture of isomers) [I-68]
> 8.00
NS(=O)(=O)OC[C@H]1C[C@@H](Nc2ncncc2C(=O)c2cc(Cc3cccc(Cl)c3)c(CO)s2)C[C@@H]1O [I-35]
> 8.00

Quick one: give me pIC50 for each item below, same order please.
1. COc1ccccc1OCc1csc(C(=O)c2cncnc2N[C@@H]2C[C@H](COS(N)(=O)=O)[C@@H](O)C2)c1 [I-80]
2. NS(=O)(=O)OCC1CC(Nc2ncncc2C(=O)c2cc(C(O)c3cccc(Cl)n3)cs2)CC1O (mixture of isomers) [I-29]

Reply:
["> 8.00", "> 8.00"]

Quick one: give me pIC50 for each item below, same order please.
1. NS(=O)(=O)OC[C@H]1C[C@@H](Nc2ncncc2C(=O)c2cc(Cn3ccc4ccccc43)cs2)C[C@@H]1O [I-114]
2. NS(=O)(=O)OC[C@H]1C[C@@H](Nc2ncncc2C(=O)c2cc(CCc3cccc(Cl)c3)cs2)C[C@@H]1O [I-146]
3. Cc1sc(C(=O)c2cncnc2N[C@@H]2C[C@H](COS(N)(=O)=O)[C@@H](O)C2)cc1[C@H](N)c1cccc(Cl)c1 (single isomer, unassigned) [I-6b]
4. Cc1oc(C(=O)c2cncnc2N[C@@H]2C[C@H](COS(N)(=O)=O)[C@@H](O)C2)cc1C1OCCc2ccccc21 (single isomer, unassigned) [I-272a]
5. Cc1sc(C(=O)c2cncnc2N[C@@H]2C[C@H](COS(N)(=O)=O)[C@@H](O)[C@H]2O)cc1[C@@H]1OCCc2ccccc21 (single isomer, unassigned) [I-250b]
6. NS(=O)(=O)OC[C@H]1C[C@@H](Nc2ncncc2C(=O)c2cc(CC3=CCOCC3)cs2)C[C@@H]1O [I-196]
7. NS(=O)(=O)OC[C@H]1C[C@@H](Nc2ncncc2C(=O)c2cc([C@H](O)c3cccc(Cl)c3F)c(Cl)s2)C[C@@H]1O (mixture of isomers) [I-40]
8. COCc1csc(C(=O)c2cncnc2N[C@@H]2C[C@H](COS(N)(=O)=O)[C@@H](O)C2)c1 [I-217]

Reply:
["> 8.00", "> 8.00", "> 8.00", "> 8.00", "> 8.00", "7.00 to 8.00", "> 8.00", "6.00 to 7.00"]

---

Target: recombinant human SAE enzyme (Homo sapiens (Human), UniProt Q9UBT2)
Assay: SAE HTRF enzyme assay
Format: biochemical
Condition Parameters: class symbols A/B/C
pIC50: −log10 of the molar value.
Observable: pIC50

NS(=O)(=O)OC[C@H]1C[C@@H](Nc2ncncc2C(=O)c2cc(C3SCCc4ccc(Cl)cc43)cs2)[C@H](O)[C@@H]1O (single isomer, unassigned) [I-278b]
> 8.00

Quick one: give me pIC50 for each item below, same order please.
1. N[C@H](c1cccc(Cl)n1)c1cc(C(=O)c2cncnc2N[C@@H]2C[C@H](COS(N)(=O)=O)[C@@H](O)C2)sc1Cl (single isomer, unassigned) [I-25b]
2. Cc1cccc(Cc2cc(C(=O)c3cncnc3N[C@@H]3C[C@H](COS(N)(=O)=O)[C@@H](O)[C@@H]3F)oc2C)c1
3. C[C@@](O)(c1ccccc1)c1coc(C(=O)c2cncnc2N[C@@H]2C[C@H](COS(N)(=O)=O)[C@@H](O)C2)c1.C[C@](O)(c1ccccc1)c1coc(C(=O)c2cncnc2N[C@@H]2C[C@H](COS(N)(=O)=O)[C@@H](O)C2)c1 (mixture of isomers)
4. NS(=O)(=O)OCC1CC(Nc2ncncc2C(=O)c2cc(C(O)(c3cccc(Cl)c3)C3CC3)cs2)CC1O (mixture of isomers)
5. NS(=O)(=O)OC[C@H]1C[C@@H](Nc2ncncc2C(=O)c2cc([C@@H]3OCCc4ccc(Cl)nc43)c(Cl)s2)C[C@@H]1O (single isomer, unassigned) [I-276b]
6. C[C@@](O)(c1cccc(Cl)c1)c1cc(C(=O)c2cncnc2N[C@@H]2C[C@H](COS(N)(=O)=O)[C@@H](O)C2)sc1Cl (mixture of isomers)

Reply:
1. > 8.00
2. > 8.00
3. > 8.00
4. > 8.00
5. > 8.00
6. > 8.00

// pIC50 (recombinant human SAE enzyme (Homo sapiens (Human), UniProt Q9UBT2)) for Cc1sc(C(=O)c2cncnc2N[C@@H]2C[C@H](COS(N)(=O)=O)[C@@H](O)C2)cc1[C@@H]1OCCc2ccsc21 (single isomer, unassigned) [I-269b] = 7.00 to 8.00

---

Target: recombinant human SAE enzyme (Homo sapiens (Human))
Assay: SAE HTRF enzyme assay
Type: biochemical
Condition Parameters: SAE inhibition; class symbols, legend in nM
Procedure: Example 215: SAE HTRF enzyme assay The SAE enzymatic reaction totals 50 μl and contains 50 mM HEPES Hemisodium (pH 7.5), 0.05% BSA, 5 mM MgCl2, 0.5 μM ATP, 250 μM GSH, 0.01 μM Ubc9-GST, 0.125 μM Sumo-Flag and 0.11 nM recombinant human SAE enzyme. […] After incubation for 2 hours at 24° C., quantification of FRET is performed on the Pherostar™ (BMG Labtech). Percentage inhibition values at a single concentration or enzyme inhibition (IC50) values are determined from those curves. […]
Where a name gives a salt, the structure may show the parent alone.
Observable: IC50

Quick one: give me IC50 for each item below, same order please.
1. Cc1sc(C(=O)c2cncnc2N[C@@H]2C[C@H](COS(N)(=O)=O)[C@@H](O)C2)cc1C1OCCc2oc(Cl)cc21 (single isomer, unassigned) [I-298b]
2. NS(=O)(=O)OC[C@H]1C[C@@H](Nc2ncncc2C(=O)c2cc([C@@H]3SCCc4ccc(Cl)cc43)cs2)C[C@@H]1O.NS(=O)(=O)OC[C@H]1C[C@@H](Nc2ncncc2C(=O)c2cc([C@H]3SCCc4ccc(Cl)cc43)cs2)C[C@@H]1O (mixture of isomers)
3. COc1ccc2c(n1)[C@H](c1cc(C(=O)c3cncnc3N[C@@H]3C[C@H](COS(N)(=O)=O)[C@@H](O)C3)sc1C)OCC2 (single isomer, unassigned) [I-339a]
4. Cc1sc(C(=O)c2cncnc2N[C@@H]2C[C@H](COS(N)(=O)=O)[C@@H](O)C2)cc1[C@@H]1OCOc2ccccc21 (single isomer, unassigned) [I-280b]
5. Cc1sc(C(=O)c2cncnc2N[C@@H]2C[C@H](COS(N)(=O)=O)[C@@H](OC(=O)[C@H](C)N)C2)cc1[C@@H]1OCCc2ccc(Cl)cc21 [I-362, hydrochloride]
6. Cc1sc(C(=O)c2cncnc2N[C@@H]2C[C@H](COS(N)(=O)=O)[C@@H](O)C2)cc1[C@@H]1c2cc(Cl)ccc2CCN1C
7. NS(=O)(=O)OC[C@H]1C[C@@H](Nc2ncncc2C(=O)c2cc([C@@H]3OCCCc4ccc(Cl)cc43)cs2)C[C@@H]1O (single isomer, unassigned) [I-314a]
8. NS(=O)(=O)OC[C@H]1C[C@@H](Nc2ncncc2C(=O)c2cc(C3SCCc4ccc(Cl)cc43)cs2)C[C@@H]1O (single isomer, unassigned) [I-320a]

Reply:
< 10 nM
10 to 100 nM
< 10 nM
< 10 nM
10 to 100 nM
< 10 nM
100 to 1000 nM
100 to 1000 nM

Quick one: give me IC50 for each item below, same order please.
1. Cc1sc(C(=O)c2cncnc2N[C@@H]2C[C@H](COS(N)(=O)=O)[C@@H](O)C2)cc1C1OCCc2ccc(C(F)(F)F)nc21 (single isomer, unassigned) [I-297a]
2. Cc1sc(C(=O)c2cncnc2N[C@@H]2C[C@H](COS(N)(=O)=O)[C@@H](O)C2)cc1[C@@H]1OCC(F)(F)c2ccc(Cl)cc21.Cc1sc(C(=O)c2cncnc2N[C@@H]2C[C@H](COS(N)(=O)=O)[C@@H](O)C2)cc1[C@H]1OCC(F)(F)c2ccc(Cl)cc21 (mixture of isomers)
3. NS(=O)(=O)OC[C@H]1C[C@@H](Nc2ncncc2C(=O)c2cc([C@@H]3OCC4(CC4)c4ccccc43)cs2)C[C@@H]1O (single isomer, unassigned) [I-281a]

Reply:
["100 to 1000 nM", "< 10 nM", "10 to 100 nM"]

---

Hi there, I'd appreciate the recorded Percent Inhibition for every entry that follows.
Target: recombinant human SAE enzyme (Homo sapiens (Human))
Assay: SAE HTRF enzyme assay
Type: biochemical
Condition Parameters: Concentration 0.111 μM
Experimental: Example 215: SAE HTRF enzyme assay The SAE enzymatic reaction totals 50 μl and contains 50 mM HEPES Hemisodium (pH 7.5), 0.05% BSA, 5 mM MgCl2, 0.5 μM ATP, 250 μM GSH, 0.01 μM Ubc9-GST, 0.125 μM Sumo-Flag and 0.11 nM recombinant human SAE enzyme. […] After incubation for 2 hours at 24° C., quantification of FRET is performed on the Pherostar™ (BMG Labtech). Percentage inhibition values at a single concentration or enzyme inhibition (IC50) values are determined from those curves. […]
Give bare numbers.

Quick one: give me Percent Inhibition for each item below, same order please.
1. Cc1sc(C(=O)c2cncnc2N[C@@H]2C[C@H](COS(N)(=O)=O)[C@@H](O)C2)cc1[S@+]([O-])c1cccc(Cl)c1.Cc1sc(C(=O)c2cncnc2N[C@@H]2C[C@H](COS(N)(=O)=O)[C@@H](O)C2)cc1[S@@+]([O-])c1cccc(Cl)c1 (mixture of isomers) [I-28]
2. C[C@H](O)c1cc(C(=O)c2cncnc2N[C@@H]2C[C@H](COS(N)(=O)=O)[C@@H](O)C2)sc1Cl (mixture of isomers) [I-226]

Reply:
1. 98
2. 33
